biological target: CYP2C8 (Homo sapiens); assay: Inhibition of CYP2C8 activity in human liver microsomes; type: in vitro ADME; parameters: co-incubated with pooled HLM (0.25 mg protein/mL); from tissue; host or cells: pooled human liver microsomes; conditions: positive inhibitor, HLM
Sequence (P10632 whole entry): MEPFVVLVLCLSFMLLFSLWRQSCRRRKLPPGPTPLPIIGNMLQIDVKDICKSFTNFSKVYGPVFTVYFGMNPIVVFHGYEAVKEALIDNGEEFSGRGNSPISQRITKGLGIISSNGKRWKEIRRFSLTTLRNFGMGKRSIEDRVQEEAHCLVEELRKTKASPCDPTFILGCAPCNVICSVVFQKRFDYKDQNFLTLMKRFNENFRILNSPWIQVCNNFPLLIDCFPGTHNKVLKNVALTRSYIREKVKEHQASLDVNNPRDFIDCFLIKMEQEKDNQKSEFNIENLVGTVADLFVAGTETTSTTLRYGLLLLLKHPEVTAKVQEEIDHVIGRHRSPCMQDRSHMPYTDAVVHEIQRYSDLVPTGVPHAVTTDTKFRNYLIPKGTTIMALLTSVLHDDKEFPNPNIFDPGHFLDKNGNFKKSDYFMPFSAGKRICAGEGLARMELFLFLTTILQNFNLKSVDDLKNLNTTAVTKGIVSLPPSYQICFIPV
Measurement Type: pIC50
pIC50 here: minus log base 10 of the concentration, concentration in moles per litre.

Value wanted: pIC50 (CYP2C8 (Homo sapiens)) of entry CC(C)(O)c1ccccc1CC[C@@H](SCC1(CC(=O)O)CC1)c1cccc(/C=C/c2ccc3ccc(Cl)cc3n2)c1
6.29

====

test system: P-gp and BCRP; test: in vitro; conditions: human, Caco-2, pH 7.4, BL-to-AP Papp of TUDCA
Measurement Type: Papp B→A at […] (×10⁻⁶ cm/s)
Expressed in ×10⁻⁶ cm/s, but write only the number.

Requested field: Papp B→A at […]. Item: C[C@H](CCC(=O)NCCS(=O)(=O)O)[C@H]1CC[C@H]2[C@@H]3[C@@H](O)C[C@@H]4C[C@H](O)CC[C@]4(C)[C@H]3CC[C@]12C [TUDCA, tauroursodeoxycholic acid]
1.94

The values you see were collected from patent US20230277630A1.
